# Subject of test: Amine oxidase [flavin-containing] B (Rattus norvegicus)
# Sequence (P19643 whole entry): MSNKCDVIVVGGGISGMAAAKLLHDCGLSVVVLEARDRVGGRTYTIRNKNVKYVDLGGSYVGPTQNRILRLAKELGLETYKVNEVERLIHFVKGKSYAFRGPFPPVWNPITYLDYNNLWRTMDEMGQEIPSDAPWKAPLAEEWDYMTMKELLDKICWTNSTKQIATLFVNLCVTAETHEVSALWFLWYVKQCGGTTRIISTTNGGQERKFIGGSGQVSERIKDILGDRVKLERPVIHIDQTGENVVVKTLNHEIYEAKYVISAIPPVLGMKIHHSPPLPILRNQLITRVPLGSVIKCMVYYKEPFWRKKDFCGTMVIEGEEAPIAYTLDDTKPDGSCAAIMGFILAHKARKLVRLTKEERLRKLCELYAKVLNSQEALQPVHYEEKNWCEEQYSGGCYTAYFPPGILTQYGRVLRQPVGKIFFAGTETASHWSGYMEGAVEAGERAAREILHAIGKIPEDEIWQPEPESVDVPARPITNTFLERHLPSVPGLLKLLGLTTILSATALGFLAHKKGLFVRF
# Experiment summary: Inhibition of MAO-B in rat liver mitochondria using p-tyramine as substrate preincubated for 10 mins followed by substrate addition measured after 30 mins in presence of MAO-A inhibitor clorgyline by Amplex red dye-based fluorescence assay
Decide using IC50 alone. Strictly below 9 µM: Fulfilled. Equal to or above 9 µM: Not fulfilled.

1. O=C(N/N=C/c1ccccc1O)C1=C(O)c2ccccc2S(=O)(=O)N1Cc1ccccc1; Fulfilled
2. CC(C)c1ccc(/C=N/NC(=O)C2=C(O)c3ccccc3S(=O)(=O)N2Cc2ccccc2)cc1; Not fulfilled
3. Cc1ccc(/C=N/NC(=O)C2=C(O)c3ccccc3S(=O)(=O)N2C)cc1; Not fulfilled
4. CCOc1ccc(/C=N/NC(=O)C2=C(O)c3ccccc3S(=O)(=O)N2C)cc1; Fulfilled
5. CN1C(C(=O)N/N=C/c2ccccc2O)=C(O)c2ccccc2S1(=O)=O; Fulfilled
6. O=C(N/N=C/c1ccc(Cl)cc1)C1=C(O)c2ccccc2S(=O)(=O)N1; Fulfilled
7. CN1C(C(=O)NN=C2CCCC2)=C(O)c2ccccc2S1(=O)=O; Fulfilled

---

# Subject of test: Amine oxidase [flavin-containing] B (Rattus norvegicus, UniProt P19643)
# Sequence (P19643 whole entry): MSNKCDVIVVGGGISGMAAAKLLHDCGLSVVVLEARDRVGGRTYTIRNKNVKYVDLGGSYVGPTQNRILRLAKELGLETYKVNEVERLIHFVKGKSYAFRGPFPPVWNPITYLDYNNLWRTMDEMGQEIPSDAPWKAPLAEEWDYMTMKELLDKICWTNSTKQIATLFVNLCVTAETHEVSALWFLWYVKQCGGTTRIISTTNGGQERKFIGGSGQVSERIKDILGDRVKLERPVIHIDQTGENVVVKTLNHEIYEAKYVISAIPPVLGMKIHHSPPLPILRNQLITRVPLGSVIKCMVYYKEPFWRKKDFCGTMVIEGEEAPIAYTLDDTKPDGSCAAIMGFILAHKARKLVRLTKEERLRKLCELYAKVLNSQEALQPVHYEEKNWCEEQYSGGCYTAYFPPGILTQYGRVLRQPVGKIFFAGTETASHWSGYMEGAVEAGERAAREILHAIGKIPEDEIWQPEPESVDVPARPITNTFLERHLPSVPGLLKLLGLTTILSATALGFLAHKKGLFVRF
# Experiment summary: Inhibition of MAO-B in rat liver mitochondria using p-tyramine as substrate preincubated for 10 mins followed by substrate addition measured after 30 mins in presence of MAO-A inhibitor clorgyline by Amplex red dye-based fluorescence assay
Decide using IC50 alone. Strictly below 800 nM: met. Equal to or above 800 nM: not met.

1. O=C(N/N=C/c1ccccc1)C1=C(O)c2ccccc2S(=O)(=O)N1; not met
2. COC(=O)C1=C(O)c2ccccc2S(=O)(=O)N1; met
3. C/C(=N\NC(=O)C1=C(O)c2ccccc2S(=O)(=O)N1C)c1ccc(Cl)cc1; met
4. CN1C(C(=O)N/N=C/c2ccccc2)=C(O)c2ccccc2S1(=O)=O; not met
5. CCOc1ccc(/C=N/NC(=O)C2=C(O)c3ccccc3S(=O)(=O)N2Cc2ccccc2)cc1; not met

Where these numbers come from: ChEMBL document CHEMBL4138153
